- SUBJECT_OF_TEST: Voltage-gated inwardly rectifying potassium channel KCNH2 (Homo sapiens, UniProt Q12809)
- Sequence (Q12809 whole entry): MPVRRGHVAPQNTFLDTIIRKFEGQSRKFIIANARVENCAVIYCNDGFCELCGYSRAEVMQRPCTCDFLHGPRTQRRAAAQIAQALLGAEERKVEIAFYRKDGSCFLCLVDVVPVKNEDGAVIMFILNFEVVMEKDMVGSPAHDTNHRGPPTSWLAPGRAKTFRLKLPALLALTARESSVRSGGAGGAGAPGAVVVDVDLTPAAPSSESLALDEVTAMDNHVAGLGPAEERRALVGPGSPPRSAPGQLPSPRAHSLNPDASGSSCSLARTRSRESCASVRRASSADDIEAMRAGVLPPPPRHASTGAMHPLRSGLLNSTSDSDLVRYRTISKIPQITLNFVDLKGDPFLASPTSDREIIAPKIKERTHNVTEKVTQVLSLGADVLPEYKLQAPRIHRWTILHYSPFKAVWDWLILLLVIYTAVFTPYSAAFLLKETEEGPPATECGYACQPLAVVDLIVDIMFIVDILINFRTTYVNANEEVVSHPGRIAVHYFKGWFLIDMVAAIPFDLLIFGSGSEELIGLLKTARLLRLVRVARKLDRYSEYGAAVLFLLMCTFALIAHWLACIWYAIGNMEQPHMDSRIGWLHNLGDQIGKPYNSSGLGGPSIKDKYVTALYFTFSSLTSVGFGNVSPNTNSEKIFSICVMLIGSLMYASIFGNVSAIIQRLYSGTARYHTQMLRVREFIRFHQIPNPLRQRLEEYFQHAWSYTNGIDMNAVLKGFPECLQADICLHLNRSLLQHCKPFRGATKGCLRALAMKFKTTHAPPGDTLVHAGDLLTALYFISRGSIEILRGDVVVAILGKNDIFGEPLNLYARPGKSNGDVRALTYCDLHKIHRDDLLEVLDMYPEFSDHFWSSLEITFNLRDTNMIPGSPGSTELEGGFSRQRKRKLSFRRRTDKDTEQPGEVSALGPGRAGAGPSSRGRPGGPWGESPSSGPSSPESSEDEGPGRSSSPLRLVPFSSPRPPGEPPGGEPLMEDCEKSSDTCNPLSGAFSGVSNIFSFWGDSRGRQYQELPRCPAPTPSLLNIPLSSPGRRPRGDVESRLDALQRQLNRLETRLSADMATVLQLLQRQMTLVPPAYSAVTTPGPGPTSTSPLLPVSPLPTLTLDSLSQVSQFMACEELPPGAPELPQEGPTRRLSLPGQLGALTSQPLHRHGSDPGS
- PROCEDURE_TEXT: Inhibition of hERG expressed in CHO cells
QUANTITY_MEASURED: pIC50
Here pIC50 is given on a logarithmic scale as minus log10 of the concentration in mol/L.

Entry CCOC(=O)c1cnc(NC2CCN(Cc3ccc(C(=O)NC)cc3)CC2)nc1Oc1c(C)cc(-c2ccc(C#N)cc2)cc1C ; pIC50 = 4.59

* * *

- SUBJECT_OF_TEST: Human immunodeficiency virus type 1 reverse transcriptase (Human immunodeficiency virus 1, UniProt Q72547)
- PROCEDURE_TEXT: Inhibition of recombinant wild-type HIV-1 reverse transcriptase incubated for 40 mins by fluorescence based assay
For each entry below, report its pIC50 value.
# pIC50 is unitless: minus log10 of the molar concentration; print number only

Item: CCOC(=O)c1cnc(NC2CCN(Cc3ccc(S(C)(=O)=O)cc3)CC2)nc1Oc1c(C)cc(-c2ccc(C#N)cc2)cc1C | pIC50: 6.22

Please fill in: pIC50 reported for CCOC(=O)c1cnc(NC2CCN(Cc3ccc(S(N)(=O)=O)cc3)CC2)nc1Oc1c(C)cc(-c2ccc(C#N)cc2)cc1C = 6.13

Data point: CCOC(=O)c1cnc(NC2CCN(Cc3ccc([N+](=O)[O-])cc3)CC2)nc1Oc1c(C)cc(-c2ccc(C#N)cc2)cc1C ; pIC50 = 6.39

CCOC(=O)c1cnc(NC2CCN(Cc3ccc(C)cc3)CC2)nc1Oc1c(C)cc(-c2ccc(C#N)cc2)cc1C has a reported pIC50 of 6.05

Summary for this compound, CCOC(=O)c1cnc(NC2CCN(Cc3cccc(C#N)c3)CC2)nc1Oc1c(C)cc(-c2ccc(C#N)cc2)cc1C : pIC50 is 6.28

Please fill in: pIC50 reported for CCOC(=O)c1cnc(NC2CCN(Cc3cccc(C(N)=O)c3)CC2)nc1Oc1c(C)cc(-c2ccc(C#N)cc2)cc1C = 6.17

Sure, the documented pIC50 for CCOC(=O)c1cnc(NC2CCN(Cc3ccc(Cl)cc3)CC2)nc1Oc1c(C)cc(-c2ccc(C#N)cc2)cc1C is 6.50

* * *

- SUBJECT_OF_TEST: Cytochrome P450 2C9 (Homo sapiens)
- Sequence (P11712 whole entry): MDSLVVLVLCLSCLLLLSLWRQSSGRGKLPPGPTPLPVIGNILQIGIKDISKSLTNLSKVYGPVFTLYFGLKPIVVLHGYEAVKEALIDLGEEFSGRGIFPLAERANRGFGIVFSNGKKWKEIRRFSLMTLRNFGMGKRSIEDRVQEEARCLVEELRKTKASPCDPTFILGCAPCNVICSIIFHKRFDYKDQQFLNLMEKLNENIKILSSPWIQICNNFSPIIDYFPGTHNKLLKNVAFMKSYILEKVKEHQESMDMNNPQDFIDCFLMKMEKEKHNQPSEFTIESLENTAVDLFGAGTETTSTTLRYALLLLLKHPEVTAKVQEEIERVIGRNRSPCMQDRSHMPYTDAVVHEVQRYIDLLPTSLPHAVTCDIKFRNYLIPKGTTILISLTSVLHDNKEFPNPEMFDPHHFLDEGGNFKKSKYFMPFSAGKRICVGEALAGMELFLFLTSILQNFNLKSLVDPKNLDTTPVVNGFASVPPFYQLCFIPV
- PROCEDURE_TEXT: Inhibition of CYP2C9 (unknown origin)
- Format: ADME
pIC50: −log10 of the molar value.
QUANTITY_MEASURED: pIC50

Record CCOC(=O)c1cnc(NC2CCN(Cc3ccc(C(=O)NC)cc3)CC2)nc1Oc1c(C)cc(-c2ccc(C#N)cc2)cc1C / Cytochrome P450 2C9 (Homo sapiens), pIC50 recorded as < 4.30

* * *

- SUBJECT_OF_TEST: UniProtKB P05177
- Sequence (P05177 whole entry): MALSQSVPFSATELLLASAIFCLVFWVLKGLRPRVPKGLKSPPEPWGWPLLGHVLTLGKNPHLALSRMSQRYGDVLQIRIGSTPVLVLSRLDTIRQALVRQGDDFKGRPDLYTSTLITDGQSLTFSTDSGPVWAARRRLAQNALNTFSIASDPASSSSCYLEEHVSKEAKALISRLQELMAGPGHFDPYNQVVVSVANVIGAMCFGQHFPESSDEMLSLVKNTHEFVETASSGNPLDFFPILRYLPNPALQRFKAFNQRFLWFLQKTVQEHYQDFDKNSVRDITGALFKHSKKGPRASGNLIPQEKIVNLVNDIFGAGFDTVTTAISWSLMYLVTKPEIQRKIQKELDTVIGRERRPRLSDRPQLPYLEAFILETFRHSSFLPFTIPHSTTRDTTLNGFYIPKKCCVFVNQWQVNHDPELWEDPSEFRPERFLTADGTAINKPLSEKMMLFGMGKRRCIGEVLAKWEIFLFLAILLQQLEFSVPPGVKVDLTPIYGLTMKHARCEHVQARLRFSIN
pIC50: −log10 of the molar value.
QUANTITY_MEASURED: pIC50

response.value for CCOC(=O)c1cnc(NC2CCN(Cc3ccc(C(=O)NC)cc3)CC2)nc1Oc1c(C)cc(-c2ccc(C#N)cc2)cc1C (field: pIC50) = < 4.30

* * *

- PROCEDURE_TEXT: Selectivity index, ratio of CC50 for human MT4 cells to EC50 for wild-type HIV-1 IIIB infected in human MT4 cells
- Format: toxicity, cell-based
- CONDITION_INFO: read-out: Ratio CC50/EC50
QUANTITY_MEASURED: selectivity ratio
Respond numerically, and do not add a unit to the figure.

For reference, reported selectivity ratio for CCOC(=O)c1cnc(NC2CCN(Cc3ccccc3C#N)CC2)nc1Oc1c(C)cc(-c2ccc(C#N)cc2)cc1C stands at 3940

Note to self: selectivity ratio recorded for CCOC(=O)c1cnc(NC2CCN(Cc3ccccc3F)CC2)nc1Oc1c(C)cc(-c2ccc(C#N)cc2)cc1C was 4040

* * *

- System: Human immunodeficiency virus 1
- PROCEDURE_TEXT: Antiviral activity against HIV-1 harboring RT L100I mutant infected in human MT4 cells assessed as protection against virus-induced cytopathic effect incubated for 5 days by MTT assay
- Assay type: functional, organism-based
- CONDITION_INFO: Human immunodeficiency virus 1, MT4, 120 h
Give pEC50 for every item shown.
pEC50 is defined as minus the log10 of a concentration measured in mol/L.

Kindly note: Human immunodeficiency virus 1, CCOC(=O)c1cnc(NC2CCN(Cc3ccncc3)CC2)nc1Oc1c(C)cc(-c2ccc(C#N)cc2)cc1C , pEC50 value reported: 7.14

Test item CCOC(=O)c1cnc(NC2CCN(Cc3cccc(C(N)=O)c3)CC2)nc1Oc1c(C)cc(-c2ccc(C#N)cc2)cc1C ; Human immunodeficiency virus 1; reported pEC50 was 7.18

pEC50 value, target or system Human immunodeficiency virus 1, for CCOC(=O)c1cnc(NC2CCN(Cc3ccccn3)CC2)nc1Oc1c(C)cc(-c2ccc(C#N)cc2)cc1C : 6.89

Note to self: pEC50 of CCOC(=O)c1cnc(NC2CCN(Cc3cccc(C(=O)NC)c3)CC2)nc1Oc1c(C)cc(-c2ccc(C#N)cc2)cc1C with Human immunodeficiency virus 1 was 7.13

* * *

- PROCEDURE_TEXT: Cytotoxicity against human MT4 cells assessed as reduction in cell viability incubated for 5 days by MTT assay
- Assay type: toxicity, cell-based
- CONDITION_INFO: time 5 day
QUANTITY_MEASURED: CC50 at 120 h

Entry CCOC(=O)c1cnc(NC2CCN(Cc3ccc(C(=O)NC)cc3)CC2)nc1Oc1c(C)cc(-c2ccc(C#N)cc2)cc1C — recorded CC50 at 120 h = > 202 µM

Lab book: CC50 at 120 h of CCOC(=O)c1cnc(NC2CCN(Cc3ccccn3)CC2)nc1Oc1c(C)cc(-c2ccc(C#N)cc2)cc1C noted as > 222 µM

The value of CC50 at 120 h measured for the compound O=C1Nc2ccc(Cl)cc2[C@@](C#CC2CC2)(C(F)(F)F)O1 [EFAVIRENZ] turned out to be > 6.35 µM

Recorded result, CCOC(=O)c1cnc(NC2CCN(Cc3cccnc3)CC2)nc1Oc1c(C)cc(-c2ccc(C#N)cc2)cc1C , CC50 at 120 h: > 222 µM

Recorded result, CCOC(=O)c1cnc(NC2CCN(Cc3cccc(C#N)c3)CC2)nc1Oc1c(C)cc(-c2ccc(C#N)cc2)cc1C , CC50 at 120 h: 178 µM

Value of measured CC50 at 120 h for the entry CCOC(=O)c1cnc(NC2CCN(Cc3ccc(/C=C/C(=O)OC)cc3)CC2)nc1Oc1c(C)cc(-c2ccc(C#N)cc2)cc1C : > 194 µM

In plain terms, Cc1ccnc2c1NC(=O)c1cccnc1N2C1CC1 [NEVIRAPINE] has a documented CC50 at 120 h of > 15 µM

Value of CC50 at 120 h reported for the compound CCOC(=O)c1cnc(NC2CCN(Cc3ccc([N+](=O)[O-])cc3)CC2)nc1Oc1c(C)cc(-c2ccc(C#N)cc2)cc1C is 164 µM

Looking up CCOC(=O)c1cnc(NC2CCN(Cc3ccncc3)CC2)nc1Oc1c(C)cc(-c2ccc(C#N)cc2)cc1C , I found its CC50 at 120 h recorded as 60 µM

Given item CCOC(=O)c1cnc(NC2CCN(Cc3ccc(S(C)(=O)=O)cc3)CC2)nc1Oc1c(C)cc(-c2ccc(C#N)cc2)cc1C , the value recorded as its CC50 at 120 h is 27.9 µM

So, CCOC(=O)c1cnc(NC2CCN(Cc3ccc(B(O)O)cc3)CC2)nc1Oc1c(C)cc(-c2ccc(C#N)cc2)cc1C ? Its CC50 at 120 h was 20.9 µM

Documented CC50 at 120 h of CCOC(=O)c1cnc(NC2CCN(Cc3ccc(F)cc3)CC2)nc1Oc1c(C)cc(-c2ccc(C#N)cc2)cc1C : 185 µM

// CC50 at 120 h lookup, compound = CCOC(=O)c1cnc(NC2CCN(Cc3ccc(OC(F)(F)F)cc3)CC2)nc1Oc1c(C)cc(-c2ccc(C#N)cc2)cc1C , result: 175 µM

Value of CC50 at 120 h reported for the compound CCOC(=O)c1cnc(NC2CCN(Cc3ccc(C#N)cc3)CC2)nc1Oc1c(C)cc(-c2ccc(C#N)cc2)cc1C is 131 µM

response.value for CCOC(=O)c1cnc(N2CCN(Cc3cccc(C(N)=O)c3)CC2)nc1Oc1c(C)cc(-c2ccc(C#N)cc2)cc1C (field: CC50 at 120 h) = 14.8 µM

Entry under test: Cc1cc(C#N)cc(C)c1Oc1nc(Nc2ccc(C#N)cc2)nc(N)c1Br [ETRAVIRINE] . Its CC50 at 120 h was > 4.61 µM

Value of CC50 at 120 h reported for the compound CCOC(=O)c1cnc(NC2CCN(Cc3ccc(C)cc3)CC2)nc1Oc1c(C)cc(-c2ccc(C#N)cc2)cc1C is 178 µM

The value of CC50 at 120 h measured for the compound CCOC(=O)c1cnc(NC2CCN(Cc3ccc(S(N)(=O)=O)cc3)CC2)nc1Oc1c(C)cc(-c2ccc(C#N)cc2)cc1C turned out to be > 195 µM

The recorded CC50 at 120 h for entry CCOC(=O)c1cnc(NC2CCN(Cc3ccc(C(F)(F)F)cc3)CC2)nc1Oc1c(C)cc(-c2ccc(C#N)cc2)cc1C equals > 199 µM

Record summary for Cc1cn([C@H]2C[C@H](N=[N+]=[N-])[C@@H](CO)O2)c(=O)[nH]c1=O [ZIDOVUDINE] : reported CC50 at 120 h = > 7.49 µM
